B1: tRNA (parent)
chain: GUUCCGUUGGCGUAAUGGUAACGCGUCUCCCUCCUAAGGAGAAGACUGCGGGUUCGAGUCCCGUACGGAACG

Variants of: B1
METHOD: yeast fitness relative to wild type (ratio to wild type); higher = fitter; tRNA-Arg(CCU), competitive growth, 37 C, YPD
Fewer inactive variants are shown than the library holds.
yeast fitness below 0.6 gives no; yeast fitness at or above it gives yes.

GGUUCGUUGGGGUAAUGCUAACGCGUCUCCCCCUUAAGGAGAAGUCUGCGGGUUCGAGUCCCGUACGGAUCG [U2G C4U C11G G18C U32C C34U A45U A70U] ... no

Ask: Does the variant GAUCUGUUGGCGUAAUGGUAACGCGUCUGCCUCCUAUGGAGAAGACUGCGGGUUCGAGUCCCGUGCGGAACG [U2A C5U C29G A37U A65G] have recorded yeast fitness that is 0.6 or more?
Result: no

Ask: Threshold query (yeast fitness >= 0.6) on GUUCCGUUGGCAUAAUGGUAACGCGUCUCUCUCCUAAGGUGAAGACUGAGGGUUCAUGUCCCGUACGGAACG [G12A C30U A40U C49A G56A A57U]
Result: no

Ask: Does the variant GUUCCGUUGGCGUAAUGGUAACGCGUAUCCCUCCUAAGGAGAAGACUGCAGGUUCGAGUCCCGUACGGUACG [C27A G50A A69U] have recorded yeast fitness that is 0.6 or more?
Result: no

Ask: Exam item: decide whether the reported yeast fitness for GUUCCGUUGGGGUAUUGGUAACGGGUCUCCCUCCUAAGGGGAAGACUGCGGGUUCGAGUCCCGUACGGAACG [C11G A15U C24G A40G] is at least 0.6.
Result: no

Ask: Reported yeast fitness at or above 0.6? GUUCCGUUGGCGUAACGGUAACGCGUAUCCCUCCUAAGGAGAAGUCUGCGGGUUCGAGUGCCGUUCGGAACG [U16C C27A A45U C60G A65U]
Result: no

Ask: Would you say GUUCCGUUGGCGUAAUGGUAACGCGUCUGCCUACUAAGGAGAAGACUGCGGGUUCGAGUCCCGUACGGAACG [C29G C33A] shows yeast fitness at minimum 0.6?
Result: yes

Ask: Check if yeast fitness >= 0.6 (inclusive). Item: GUUCCGUUGGCGUAAUGGUAACGCGUCUCCCUCCUAAGGAGAAGACUCCGGGUUAGAGUCUCGUACGGAACG [G48C C55A C61U]
Result: no

Ask: API: above_or_equal(metric=yeast fitness, cutoff=0.6) for item GUUCUGUUGGGGUAAUGGUAACGCGUCUGCCUCCUAAGGAGAAGAUUGCGGGUUCGAGUCCCGUACGGAACG [C5U C11G C29G C46U]
Result: no

Ask: Does the variant GUUCCGUUGGCGUAAUGGUAACGCGGGUCCCUCCUAAGGAGAAGACUGCGGGUUCGCGUCCCGUAUGGUACG [U26G C27G A57C C66U A69U] have recorded yeast fitness that is 0.6 or more?
Result: no

Ask: Record GUUCCGUUGGCGUAAUGGUAACGCGUCACCCUCCUAAGGAGGAGACUGCGGGUUCGAGUCCCGAACGGAACG [U28A A42G U64A] ; criterion: yeast fitness no lower than 0.6. Met?
Result: no

Ask: Say whether GGUCCGUUCGCGUAGUGGUAACGCGUCUCCCUCCUAAGGAGAAGACUGCGGGUUCGAGUCCCGUACGGAACG [U2G G9C A15G] shows yeast fitness of 0.6 or more.
Result: no

Ask: Quick check, yeast fitness >= 0.6? GUUCCGUUGGCGUAAUGGUAACGCGUCUCCCCCCUAAGGAGAAGACUGCGGGUUCGAGUCCCGUACGGAUCG [U32C A70U]
Result: yes

Ask: For this variant, is measured yeast fitness 0.6 or higher? GUUCCGAUGGCGUAAUGGUAACGCGUCUCCCUCCUCAGGAGAAGACUGCGCGUUCGAGUCCCGUACGGAACG [U7A A36C G51C]
Result: no

Ask: Could you verify whether the entry GUUCCAUUGGCGUAAUGGUAACGCGUGUCCCUCCUAAGGAGAAGACUGCGGGUUCGAGUCCCGUACGGAACG [G6A C27G] shows yeast fitness of no less than 0.6?
Result: yes

Ask: Check this variant for yeast fitness at or above 0.6: GUUCCGUUGGCGUAAUGGUUACACGUCUCCCUCCUUAGGAGAAGACUGCGGGUUCGAGUCCCGUACGGAACG [A20U G23A A36U]
Result: no

Ask: Does the variant GUUCCGUUGGCGUAAUGGUAAAGCGUAUCCCUCCUAAGGAGAAGACUGCGGCUUCGAGUCCCAUACGGAACG [C22A C27A G52C G63A] have recorded yeast fitness that is 0.6 or more?
Result: no
